Literature-derived log10(IC50) for Cathepsin S (Homo sapiens, UniProt P25774) follows.
In plain terms, each number is the log10 of measured IC50 in nM.

The following compounds have reported results that may help.
Report log10(IC50) for CC1(C)CCC(N2CCC2C(=O)N2C[C@H](S(=O)(=O)c3ccccc3Cl)C[C@H]2C(=O)NC2(C#N)CC2)CC1 (stereo partly drawn) tested on Cathepsin S (Homo sapiens, UniProt P25774). 0.58

Report log10(IC50) for N#CC1(NC(=O)[C@@H]2C[C@@H](S(=O)(=O)c3ccccc3F)CN2C(=O)C2(c3ncc(Cl)cc3F)CC2)CC1 tested on Cathepsin S (Homo sapiens, UniProt P25774). -0.15

Report log10(IC50) for N#CC1(NC(=O)[C@@H]2C[C@@H](S(=O)(=O)c3ccc(Cl)cn3)C[C@H]2C(=O)N2CCC(F)(F)C2)CC1 tested on Cathepsin S (Homo sapiens, UniProt P25774). -0.42

Report log10(IC50) for N#CC1(NC(=O)C2(NC(=O)c3cc4ccc(-c5ccc(N6CCNC6=O)cc5)cc4o3)CCC(F)(F)CC2)CC1 tested on Cathepsin S (Homo sapiens, UniProt P25774). 3.46

Read the next record carefully.
Report log10(IC50) for N#CC1(NC(=O)[C@@H]2C[C@@H](S(=O)(=O)c3ccccc3Cl)C[C@H]2OCc2ccc(C(F)(F)F)cc2)CC1 (racemic) tested on Cathepsin S (Homo sapiens, UniProt P25774). 0.78

* * *

Literature-derived pIC50 for UniProtKB P25774 follows.
Keep it numeric: pIC50 is minus log10 of the concentration in mol/L.

The following compounds have reported results that may help.
Record request: pIC50 value, item CS(=O)(=O)N1CCC(N2CCC2C(=O)N2C[C@H](S(=O)(=O)c3ccccc3Cl)C[C@H]2C(=O)NC2(C#N)CC2)CC1 (stereo partly shown) 8.57

Record request: pIC50 value, item CC[C@H](NC(=O)[C@@H]1C[C@@H](S(=O)(=O)c2ccccc2Cl)CN1C(=O)C1(c2ccc(Cl)cc2)CC1)C(=O)C(=O)NC1CC1 9.53

Record request: pIC50 value, item CO[C@@H]1C[C@H](S(=O)(=O)c2ccc(-c3nc(C)cs3)cc2C(F)(F)F)C[C@H]1C(=O)NC1(C#N)CC1 (racemic) 9.52

Others:
Record request: pIC50 value, item N#CC1(NC(=O)C2(NC(=O)c3cc4ccc(-c5ccc(C6(N)COC6)cc5)cc4o3)CCCCC2)CC1 5.74

Record request: pIC50 value, item CO[C@@H]1C[C@H](S(=O)(=O)c2ccc(N3CCN(C)CC3)cc2C(F)(F)F)C[C@H]1C(=O)NC1(C#N)CC1 (racemic) 8.82

Record request: pIC50 value, item CS(=O)(=O)c1ccc(-c2ccc3cc(C(=O)NC4(C(=O)NC5(C#N)CC5)CCCCC4)oc3n2)cc1 5.82

* * *

Literature-derived pIC50 for Cathepsin S (Homo sapiens) follows.
Keep it numeric: pIC50 is minus log10 of the concentration in mol/L.

The following molecules have reported results that may help.
Report pIC50 for COC[C@@H]1C[C@@H](S(=O)(=O)c2ccccc2Cl)C[C@H]1C(=O)NC1(C#N)CC1 (single isomer, unassigned) tested on Cathepsin S (Homo sapiens). 6.00

Report pIC50 for N#CC1(NC(=O)[C@@H]2C[C@@H](S(=O)(=O)c3ccc(Br)cc3C(F)(F)F)C[C@H]2OC2CCCC2)CC1 (racemic) tested on Cathepsin S (Homo sapiens). 9.04

Report pIC50 for N#CC1(NC(=O)[C@@H]2C[C@H](S(=O)(=O)c3ccccc3Cl)C[C@H]2COc2ccc(Cl)cc2)CC1 (single isomer, unassigned) tested on Cathepsin S (Homo sapiens). 5.51

Report pIC50 for CCC[C@H](NC(=O)[C@@H]1C[C@@H](S(=O)(=O)c2ccccc2Cl)CN1C(=O)C1(c2ccc(Cl)cc2)CC1)C(=O)C(=O)NCC(F)(F)F tested on Cathepsin S (Homo sapiens). 8.97

Others:
Report pIC50 for Cc1ncn(-c2ccc(S(=O)(=O)[C@@H]3C[C@@H](C(=O)NC4(C#N)CC4)N(C(=O)C4(C(F)(F)F)CC4)C3)c(C(F)(F)F)c2)n1 tested on Cathepsin S (Homo sapiens). 9.11
